Data provenance is patent US11446298B2.

# subject.of.test: PTGER2 (EP2) (Homo sapiens, UniProt P43116)
# Sequence (P43116 whole entry): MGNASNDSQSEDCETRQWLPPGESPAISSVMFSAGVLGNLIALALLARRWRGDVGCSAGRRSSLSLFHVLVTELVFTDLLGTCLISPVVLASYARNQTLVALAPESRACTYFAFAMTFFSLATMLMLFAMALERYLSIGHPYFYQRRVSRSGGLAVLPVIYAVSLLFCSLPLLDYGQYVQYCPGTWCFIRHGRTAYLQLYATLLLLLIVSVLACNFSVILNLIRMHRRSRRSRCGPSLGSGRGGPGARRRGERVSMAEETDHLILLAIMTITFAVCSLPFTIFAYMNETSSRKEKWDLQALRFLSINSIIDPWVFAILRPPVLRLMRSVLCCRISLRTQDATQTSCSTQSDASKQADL
# assay.comment: hEP2 b-Arrestin Assay (PathHunter HEK 293 PTGER2 b-arrestin cells, PGE2 5 μM)
# study.conditions: antagonistic activity, beta-arrestin assay, HEK 293 PTGER2 cells, PGE2 5 μM (EC80); read-out: hEP2 b-arr IC50
reported.endpoint: IC50 (nM)

I = COc1ccc2c(ccn2C)c1CCNc1cc(-c2ccc(C(=O)O)c(SC)c2)ncn1
II = CCOc1cc(-c2cc(NCCc3cccc4ccoc34)ncn2)sc1C(=O)O
Consider entries I and II . Which has the numerically lower IC50? Which one? Tell me its label.
I
(I: 3 nM, II: 115 nM)

a = CCOc1ccc2sccc2c1CCNc1cc(-c2ccc(C(=O)O)c(SC)c2)ncn1
b = O=C(O)c1ccc(-c2cc(NCCc3cccc4ccsc34)ncn2)cc1OC1CCC1
Consider entries a and b . Which has the numerically lower IC50? Which one? Tell me its label.
a
(a: 4 nM, b: 145 nM)
